# run.description: Biodistribution of 67Ga complexes in mice
# Assay type: in vivo, balb/c mice
# study.conditions: 1 min
measure: biodistribution kidney (% ID)

smiles_representation=CC(C)(C)c1ccc(O)c(NC(=O)CN(CCN(CC(=O)O)CC(=O)Nc2cc(C(C)(C)C)ccc2O)CC(=O)O)c1 measure="biodistribution kidney" observed=6.91
smiles_representation=Cc1cc(C)c(O)c(NC(=O)CN(CCN(CC(=O)O)CC(=O)Nc2cc(C)cc(C)c2O)CC(=O)O)c1 measure="biodistribution kidney" observed=9.95
smiles_representation=O=C(O)CN(CCN(CC(=O)O)CC(=O)Nc1ccc(Cl)cc1O)CC(=O)Nc1ccc(Cl)cc1O measure="biodistribution kidney" observed=9.54
smiles_representation=O=C(O)CN(CCN(CC(=O)O)CC(=O)Nc1ccccc1O)CC(=O)Nc1ccccc1O measure="biodistribution kidney" observed=9.28

----------
# run.description: Biodistribution of 99mTc complexes in rats
# Assay type: in vivo, Australian Albino Wistar Rats
# study.conditions: rat, brain, rats, 1 min, read-out: biodistribution brain
measure: tissue uptake at 1 min (%ID/g)

smiles_representation=O=C(O)CN(CCN(CC(=O)O)CC(=O)Nc1ccccc1O)CC(=O)Nc1ccccc1O measure="tissue uptake at 1 min" unit_info=%ID/g observed=0.09

a = O=C(O)CN(CCN(CC(=O)O)CC(=O)Nc1ccc(Cl)cc1O)CC(=O)Nc1ccc(Cl)cc1O
b = Nc1ccc(O)c(NC(=O)CN(CCN(CC(=O)O)CC(=O)Nc2cc(N)ccc2O)CC(=O)O)c1
Select one: a or b . Criterion: greater recorded tissue uptake at 1 min. Provide the label of your selected option as the answer.
b

----------
# run.description: Biodistribution of 99mTc complexes in mice
# Type: in vivo, Balb/c mice
# study.conditions: 3 min
measure: biodistribution GIT (% Injected dose)

Sample records with biodistribution GIT:
compound="O=C(O)CN(CCN(CC(=O)O)CC(=O)Nc1ccc(Cl)cc1O)CC(=O)Nc1ccc(Cl)cc1O [Compound 2]" observed=4.86
compound="CC(C)(C)c1ccc(O)c(NC(=O)CN(CCN(CC(=O)O)CC(=O)Nc2cc(C(C)(C)C)ccc2O)CC(=O)O)c1 [Compound 4]" observed=8.34

1 = O=C(O)CN(CCN(CC(=O)O)CC(=O)Nc1ccccc1O)CC(=O)Nc1ccccc1O [Compound 1]
2 = Cc1cc(C)c(O)c(NC(=O)CN(CCN(CC(=O)O)CC(=O)Nc2cc(C)cc(C)c2O)CC(=O)O)c1 [Compound 6]
Param metric = biodistribution GIT; output whichever of 1 , 2 has the minimum value. Provide the label of your selected option as the answer.
1
(1: 6.06 % Injected dose, 2: 11.98 % Injected dose)

----------
# run.description: Biodistribution of 99mTc complexes in mice
# Assay type: in vivo, Balb/c mice
# study.conditions: 10 min
measure: biodistribution muscle (% Injected dose)

I = Cc1cc(C)c(O)c(NC(=O)CN(CCN(CC(=O)O)CC(=O)Nc2cc(C)cc(C)c2O)CC(=O)O)c1 [Compound 6]
II = Nc1ccc(O)c(NC(=O)CN(CCN(CC(=O)O)CC(=O)Nc2cc(N)ccc2O)CC(=O)O)c1 [Compound 5]
Param metric = biodistribution muscle; output whichever of I , II has the minimum value. Provide the label of your selected option as the answer.
I
(I: 5.27 % Injected dose, II: 9.67 % Injected dose)

----------
# run.description: Biodistribution of 99mTc complexes in mice
# Type: in vivo, Balb/c mice
# study.conditions: 5 min
measure: biodistribution GIT (% Injected dose)

Sample records with biodistribution GIT:
smiles_representation=O=C(O)CN(CCN(CC(=O)O)CC(=O)Nc1ccccc1O)CC(=O)Nc1ccccc1O unit_info="% Injected dose" observed=4.77
smiles_representation=CC(C)(C)c1ccc(O)c(NC(=O)CN(CCN(CC(=O)O)CC(=O)Nc2cc(C(C)(C)C)ccc2O)CC(=O)O)c1 unit_info="% Injected dose" observed=13.7

a = O=C(O)CN(CCN(CC(=O)O)CC(=O)Nc1ccc(Cl)cc1O)CC(=O)Nc1ccc(Cl)cc1O
b = Cc1cc(C)c(O)c(NC(=O)CN(CCN(CC(=O)O)CC(=O)Nc2cc(C)cc(C)c2O)CC(=O)O)c1
Param metric = biodistribution GIT; output whichever of a , b has the minimum value. Provide the label of your selected option as the answer.
a
(a: 3.38 % Injected dose, b: 27.85 % Injected dose)

----------
# run.description: Biodistribution of 67Ga complexes in mice
# Type: in vivo, balb/c mice
# study.conditions: 3 min
measure: biodistribution spleen (% ID)

smiles_representation=O=C(O)CN(CCN(CC(=O)O)CC(=O)Nc1ccc(Cl)cc1O)CC(=O)Nc1ccc(Cl)cc1O unit_info="% ID" observed=0.1
smiles_representation=CC(C)(C)c1ccc(O)c(NC(=O)CN(CCN(CC(=O)O)CC(=O)Nc2cc(C(C)(C)C)ccc2O)CC(=O)O)c1 unit_info="% ID" observed=0.04

I = O=C(O)CN(CCN(CC(=O)O)CC(=O)Nc1ccccc1O)CC(=O)Nc1ccccc1O
II = Cc1cc(C)c(O)c(NC(=O)CN(CCN(CC(=O)O)CC(=O)Nc2cc(C)cc(C)c2O)CC(=O)O)c1
Select one: I or II . Criterion: greater recorded biodistribution spleen. Provide the label of your selected option as the answer.
I
(I: 0.14 % ID, II: 0.08 % ID)

----------
# run.description: Biodistribution of 99mTc complexes in rats
# Type: in vivo, Australian Albino Wistar Rats
# study.conditions: rat, pancreas, rats, 10 min, read-out: biodistribution pancreas
# Method: A typical method of radiolabelling of the chelator was achieved by dissolving the chelator in a basic solution of saline. The pH was then adjusted to approx. 6 with HCl. Excess stannous chloride was added to the resultant solution followed by one equivalent volume of sodium ^99m TcO4 (10-50 mCi/ml). Final concentration of the chelator was approx. 1 mg/ml. The efficacy of labelling was determined by ITLC-SG. For each product only one main radiochemical species was observed. […]
measure: tissue uptake at 10 min (%ID/g)

Sample records with tissue uptake at 10 min:
smiles_representation=O=C(O)CN(CCN(CC(=O)O)CC(=O)Nc1ccccc1O)CC(=O)Nc1ccccc1O measure="tissue uptake at 10 min" observed=0.3
smiles_representation=O=C(O)CN(CCN(CC(=O)O)CC(=O)Nc1cc([N+](=O)[O-])ccc1O)CC(=O)Nc1cc([N+](=O)[O-])ccc1O measure="tissue uptake at 10 min" observed=0.21
smiles_representation=CC(C)(C)c1ccc(O)c(NC(=O)CN(CCN(CC(=O)O)CC(=O)Nc2cc(C(C)(C)C)ccc2O)CC(=O)O)c1 measure="tissue uptake at 10 min" observed=0.39

P = Nc1ccc(O)c(NC(=O)CN(CCN(CC(=O)O)CC(=O)Nc2cc(N)ccc2O)CC(=O)O)c1
Q = O=C(O)CN(CCN(CC(=O)O)CC(=O)Nc1ccc(Cl)cc1O)CC(=O)Nc1ccc(Cl)cc1O
Param metric = tissue uptake at 10 min; output whichever of P , Q has the minimum value. Provide the label of your selected option as the answer.
Q
(Q: 0.27 %ID/g, P: 0.43 %ID/g)

----------
# run.description: Biodistribution of 99mTc complexes in mice
# Format: in vivo, Balb/c mice
# study.conditions: 30 min
measure: biodistribution tail (% Injected dose)

compound="CC(C)(C)c1ccc(O)c(NC(=O)CN(CCN(CC(=O)O)CC(=O)Nc2cc(C(C)(C)C)ccc2O)CC(=O)O)c1 [Compound 4]" observed=1.91

a = O=C(O)CN(CCN(CC(=O)O)CC(=O)Nc1ccc(Cl)cc1O)CC(=O)Nc1ccc(Cl)cc1O [Compound 2]
b = Cc1cc(C)c(O)c(NC(=O)CN(CCN(CC(=O)O)CC(=O)Nc2cc(C)cc(C)c2O)CC(=O)O)c1 [Compound 6]
c = O=C(O)CN(CCN(CC(=O)O)CC(=O)Nc1ccccc1O)CC(=O)Nc1ccccc1O [Compound 1]
Order the entries by their reported biodistribution tail, beginning at the minimum. Please, when replying, give the labels in the order that was requested.
c, b, a
(c: 1.53 % Injected dose, b: 2.41 % Injected dose, a: 7.67 % Injected dose)

----------
# run.description: Biodistribution of 99mTc complexes in mice
# Format: in vivo, Balb/c mice
# study.conditions: 1 min
measure: biodistribution heart (% Injected dose)

smiles_representation=O=C(O)CN(CCN(CC(=O)O)CC(=O)Nc1ccc(Cl)cc1O)CC(=O)Nc1ccc(Cl)cc1O observed=0.49
smiles_representation=CC(C)(C)c1ccc(O)c(NC(=O)CN(CCN(CC(=O)O)CC(=O)Nc2cc(C(C)(C)C)ccc2O)CC(=O)O)c1 observed=0.6
smiles_representation=Cc1cc(C)c(O)c(NC(=O)CN(CCN(CC(=O)O)CC(=O)Nc2cc(C)cc(C)c2O)CC(=O)O)c1 observed=0.46
smiles_representation=O=C(O)CN(CCN(CC(=O)O)CC(=O)Nc1ccccc1O)CC(=O)Nc1ccccc1O observed=0.57

----------
# run.description: Biodistribution of 99mTc complexes in rats
# Format: in vivo, Australian Albino Wistar Rats
# study.conditions: rat, kidney, rats, 3 minutes, selected data, read-out: Kidney
measure: tissue uptake at 0.05 h (%ID/g)

smiles_representation=CC(C)(C)c1ccc(O)c(NC(=O)CN(CCN(CC(=O)O)CC(=O)Nc2cc(C(C)(C)C)ccc2O)CC(=O)O)c1 measure="tissue uptake at 0.05 h" observed=4.54

1 = O=C(O)CN(CCN(CC(=O)O)CC(=O)Nc1ccc(Cl)cc1O)CC(=O)Nc1ccc(Cl)cc1O
2 = O=C(O)CN(CCN(CC(=O)O)CC(=O)Nc1ccccc1O)CC(=O)Nc1ccccc1O
Select one: 1 or 2 . Criterion: greater recorded tissue uptake at 0.05 h. Provide the label of your selected option as the answer.
1
(1: 8.9 %ID/g, 2: 4.12 %ID/g)
